- test system: Ubiquitin carboxyl-terminal hydrolase 10 (Homo sapiens)
- experiment summary: ubiquitin-specific protease 10 DUB inhibitors, concentration-effect, biochemical, verification of primary screen actives (AID 1645863);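 further: potency values describe inhibition of USP10 cleavage of a fluorogenic ubiquitin substrate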
- measurement context: USP10 deubiquitinase enzymatic assay
Activity calls are given as the source filed them. How the calls were made is not given here.
Possible outcomes: label 1 for active, label 0 for inactive

1) O=C(Cn1ncc2c(=O)oc3ccccc3c21)NCc1ccc2c(c1)OCO2; label 0
2) O=C(Cc1ccc(-n2c(=O)c3ccccc3n(CC(=O)Nc3ccc(Cl)cc3Cl)c2=O)cc1)NCc1ccco1; label 1
3) COc1cc2cc3c(c(O)c2c(O)c1-c1c(OC)cc2cc4c(c(O)c2c1O)C(=O)OC1CC(C)OC41)C(=O)OC1CC(C)OC31 (configuration not stated); label 1
4) COc1ccccc1NC(=O)c1nc(-c2cn(-c3cccc(F)c3)nn2)no1; label 1
5) CS(=O)(=O)c1cccc(-c2nnc(NC(=O)c3ccc(Cc4ccccc4)cc3)o2)c1; label 0
6) O=C1CC(c2ccccc2)n2ncnc2N1 (configuration not stated); label 0
7) COc1cc(OC)cc(N2C(=O)N(CC(=O)c3ccc(Br)cc3)c3ccccc3S2(=O)=O)c1; label 1
8) COc1ccccc1C(=O)Nc1ccc(-c2nc3ccccc3o2)c(O)c1; label 0
9) CCN(Cc1ccccc1)C(=O)Cn1ccc2ccn(C)c2c1=O; label 0
10) Cc1cc(Nc2ccc(C(=O)NCc3ccco3)cc2)n2nc(-c3cccnc3)nc2n1; label 0
11) CC1CCc2c(sc(NC(=O)c3cccc(S(C)(=O)=O)c3)c2C(N)=O)C1 (configuration not stated); label 0
12) O=C(Nc1cc(F)c2nc(N3CCOCC3)ccc2c1)C1CC1; label 0
